# assay info: Pharmacokinetics in plasma and brain after single i.p. or oral dose
# Type: in vivo, male BALB/c mice
# condition description: mouse, ip; i.p. 10 mg.kg^−1 single dose, plasma, male BALB/c mice
experimental endpoint: AUC(0-inf) (ng·h/mL)
// units = ng·h/mL; emit number, no label

// field: AUC(0-inf); key: c1ccc(-c2n/c(=N/CCN3CCOCC3)sn2-c2ccccc2)cc1 [VP3.15] ; value = 2000

###

# assay info: Pharmacokinetics in plasma and brain after single i.p. or oral dose
# Format: in vivo, male BALB/c mice
# condition description: mouse, ip; i.p. 10 mg.kg^−1 single dose, brain, male BALB/c mice
experimental endpoint: MRT last (h)
// units = h; emit number, no label

// field: MRT last; key: c1ccc(-c2n/c(=N/CCN3CCOCC3)sn2-c2ccccc2)cc1 [VP3.15] ; value = 1.21

###

# assay info: Pharmacokinetics in plasma and brain after single i.p. or oral dose
# Format: in vivo, male BALB/c mice
# condition description: mouse, po; p.o. 50 mg.kg^−1 single dose, plasma, male BALB/c mice
experimental endpoint: Tmax (h)
// units = h; emit number, no label

// field: Tmax; key: c1ccc(-c2n/c(=N/CCN3CCOCC3)sn2-c2ccccc2)cc1 ; value = 1

###

# assay info: Pharmacokinetics in plasma and brain after single i.p. or oral dose
# Type: in vivo, male BALB/c mice
# condition description: mouse, po; p.o. 50 mg.kg^−1 single dose, plasma, male BALB/c mice
experimental endpoint: AUC(0-t) (ng·h/mL)
// units = ng·h/mL; emit number, no label

// field: AUC(0-t); key: c1ccc(-c2n/c(=N/CCN3CCOCC3)sn2-c2ccccc2)cc1 ; value = 2290

###

# assay info: Pharmacokinetics in plasma and brain after single i.p. or oral dose
# Type: in vivo, male BALB/c mice
# condition description: mouse, po; p.o. 50 mg.kg^−1 single dose, plasma, male BALB/c mice
experimental endpoint: MRT inf (h)
// units = h; emit number, no label

// field: MRT inf; key: c1ccc(-c2n/c(=N/CCN3CCOCC3)sn2-c2ccccc2)cc1 ; value = 1.86

###

# assay info: Pharmacokinetics in plasma and brain after single i.p. or oral dose
# Type: in vivo, male BALB/c mice
# condition description: mouse, po; p.o. 50 mg.kg^−1 single dose, brain, male BALB/c mice
experimental endpoint: Tmax (min)
// units = min; emit number, no label

// field: Tmax; key: c1ccc(-c2n/c(=N/CCN3CCOCC3)sn2-c2ccccc2)cc1 ; value = 30

###

# assay info: Pharmacokinetics in plasma and brain after single i.p. or oral dose
# Type: in vivo, male BALB/c mice
# condition description: mouse, ip; i.p. 10 mg.kg^−1 single dose, brain, male BALB/c mice
experimental endpoint: Tmax (min)
// units = min; emit number, no label

// field: Tmax; key: c1ccc(-c2n/c(=N/CCN3CCOCC3)sn2-c2ccccc2)cc1 ; value = 4.8

###

# assay info: Pharmacokinetics in plasma and brain after single i.p. or oral dose
# Format: in vivo, male BALB/c mice
# condition description: mouse, po; p.o. 50 mg.kg^−1 single dose, plasma, male BALB/c mice
experimental endpoint: Cmax (ng/mL)
// units = ng/mL; emit number, no label

// field: Cmax; key: c1ccc(-c2n/c(=N/CCN3CCOCC3)sn2-c2ccccc2)cc1 [VP3.15] ; value = 881

###

# assay info: Pharmacokinetics in plasma and brain after single i.p. or oral dose
# Type: in vivo, male BALB/c mice
# condition description: mouse, ip; i.p. 10 mg.kg^−1 single dose, brain, male BALB/c mice
experimental endpoint: MRT inf (h)
// units = h; emit number, no label

// field: MRT inf; key: c1ccc(-c2n/c(=N/CCN3CCOCC3)sn2-c2ccccc2)cc1 [VP3.15] ; value = 1.25

###

# assay info: Pharmacokinetics in plasma and brain after single i.p. or oral dose
# Format: in vivo, male BALB/c mice
# condition description: mouse, po; p.o. 50 mg.kg^−1 single dose, brain, male BALB/c mice
experimental endpoint: Cmax (ng/g)
// units = ng/g; emit number, no label

// field: Cmax; key: c1ccc(-c2n/c(=N/CCN3CCOCC3)sn2-c2ccccc2)cc1 [VP3.15] ; value = 497

###

# assay info: Pharmacokinetics in plasma and brain after single i.p. or oral dose
# Type: in vivo, male BALB/c mice
# condition description: mouse, ip; i.p. 10 mg.kg^−1 single dose, plasma, male BALB/c mice
experimental endpoint: MRT last (min)
// units = min; emit number, no label

// field: MRT last; key: c1ccc(-c2n/c(=N/CCN3CCOCC3)sn2-c2ccccc2)cc1 ; value = 49.2

###

# assay info: Pharmacokinetics in plasma and brain after single i.p. or oral dose
# Type: in vivo, male BALB/c mice
# condition description: mouse, ip; i.p. 10 mg.kg^−1 single dose, plasma, male BALB/c mice
experimental endpoint: MRT inf (min)
// units = min; emit number, no label

// field: MRT inf; key: c1ccc(-c2n/c(=N/CCN3CCOCC3)sn2-c2ccccc2)cc1 ; value = 54.6
